Ref: ChEMBL document CHEMBL1201862

Some molecules, each annotated with its measured GI50.
- Tested on: NCI-H23
- measurement-description: NCI tumour cell line growth inhibition, 48 h
Activity calls are given as the source filed them. Cut-off read from the data, not from the text of the source: active = GI50 up to about 1.1 µM and inactive = higher.

Record excerpt, results attached:
{"molecule": "C=CCN1C(N)=C(C(N)=O)S/C1=C1/SC(=S)N(c2ccc(C)cc2)C1=O", "system-name": "NCI-H23", "GI50": "65.3 µM (inactive)"}
{"molecule": "C/C=C/C=C/C=C/C=C/C(=O)O", "system-name": "NCI-H23", "GI50": "> 100 µM (inactive)"}
{"molecule": "O=C1/C(=C\\c2cccc(Oc3ccccc3)c2)SC(c2ccccc2)N1c1cccc([N+](=O)[O-])c1 (centres undefined)", "system-name": "NCI-H23", "GI50": "> 100 µM (inactive)"}
{"molecule": "COc1cc(Nc2nc3cc(C(F)(F)F)ccc3n3cccc23)cc(OC)c1OC", "system-name": "NCI-H23", "GI50": "> 100 µM (inactive)"}
{"molecule": "Nc1ccc(Oc2ccc(C34CC5C6CC7(c8ccc(Oc9ccc(N)cc9)cc8)CC5C(C3)C(C7)C6C4)cc2)cc1", "system-name": "NCI-H23", "GI50": "> 100 µM (inactive)"}
{"molecule": "CN(C)c1cccc(-c2cc(O)c3ccccc3n2)c1", "system-name": "NCI-H23", "GI50": "54.8 µM (inactive)"}
{"molecule": "Cc1c2ccnc(C(F)(F)F)c2cc2c1[nH]c1ccccc12", "system-name": "NCI-H23", "GI50": "> 125 µM (inactive)"}
{"molecule": "CC(C)OP(=O)(OC(C)C)/C(=N/Nc1ccc([N+](=O)[O-])cc1)NCCO", "system-name": "NCI-H23", "GI50": "> 100 µM (inactive)"}
{"molecule": "COC(=O)C1=CCON(c2ccccc2)C1c1ccccc1 (centres undefined)", "system-name": "NCI-H23", "GI50": "33.2 µM (inactive)"}
{"molecule": "COC(=O)c1cn(CCCCO)nn1", "system-name": "NCI-H23", "GI50": "> 100 µM (inactive)"}

Note: attention shifts to another entry.
Task item: Which GI50 is listed for CCOC1CCC2C(CCC(/C=C/c3ccc(O)c4ncccc34)N2C)C1 (centres undefined) ?
Reply: 10.3 µM (inactive)

---

- Tested on: Malme-3M
- measurement-description: NCI tumour cell line growth inhibition, 48 h
Calls of active or inactive are those of the source. Rule as the data show it: active = GI50 up to about 1.1 µM and inactive = higher.
Hello, when you answer, please use one of the following outcomes: active, inactive

Look over these answered cases.
{"compound": "COc1cccc(N/C(C)=C2/CCOC2=O)c1", "label-value": "inactive"}
{"compound": "COc1cc([C@@H]2c3cc4c(cc3[C@@H](NC(=O)c3cccc(C#N)c3)C3COC(=O)[C@@H]32)OCO4)cc(OC)c1O (stereo not given in full)", "label-value": "active"}
{"compound": "O=C(/C=C/c1ccc2c(c1)OCO2)NCc1ccco1", "label-value": "inactive"}
{"compound": "NC1=Nc2ccccc2Sc2nnc(-c3ccc(Cl)cc3)n21", "label-value": "inactive"}
{"compound": "CCOC(=O)C1=CC(C)(C(=O)OCC)Nc2c(nc(N)[nH]c2=O)N1 (stereo not given)", "label-value": "inactive"}
{"compound": "N=c1oc2c(Cl)cc(Cl)cc2cc1C(=O)Nc1ccccn1", "label-value": "inactive"}
{"compound": "COC(=O)C(Br)C1CCc2ccccc21 (stereo not given)", "label-value": "inactive"}
{"compound": "COC(=O)C1CCc2nnc(-c3cccnc3)n21 (stereo not given)", "label-value": "inactive"}

Task item: Per the assay record, what outcome was assigned to NC(=O)c1cc(N(CCO)CCO)c([N+](=O)[O-])cc1[N+](=O)[O-] ?
Reply: inactive

Task item: Per the assay record, what outcome was assigned to C#CC(O)/C=C/C(O)CCCC(O)CC#CC(O)C#CC(O)CCCC(O)/C=C/CCCC(=O)CCCCCCCCCCCCCCCC(O)C(O)C#CC(=O)O (stereo not given) ?
Reply: inactive
